# IC50 annotations
target: recombinant human KLK5 (human) (UniProt Q9Y337); test: pro-KLK7 LC/MS assay, 5 nM KLK5
Sequence (Q9Y337 67-293): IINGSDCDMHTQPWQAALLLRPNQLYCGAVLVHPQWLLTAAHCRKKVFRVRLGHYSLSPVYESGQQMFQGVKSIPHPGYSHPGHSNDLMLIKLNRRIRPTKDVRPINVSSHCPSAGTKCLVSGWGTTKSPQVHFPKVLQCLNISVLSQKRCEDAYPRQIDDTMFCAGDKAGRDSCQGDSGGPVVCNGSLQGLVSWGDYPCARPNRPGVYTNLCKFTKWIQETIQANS
Kindly answer with a numeric value in nM, unit omitted.

binder	obs.value
10C8 (antibody, V domains shown) VH: QSVKESEGGLFKPTDNLTLTCTVSGFSLSSYGVSWVRQAPGNGLEYIGFIGSGGFAYYASWAKSRSTITRNTNLNTVTLKMTSLTAADTATYFCARDDVGGGRSLDIWGPGTVVTVSS VL: NIVMTQTPASVEVAMGGTVIIKCQASQSISTYLSWYQQKPGQPPKLLIYSASTLASGVSSRFEGSGSGTQFTLTISGVQCADAATYYCHQDYTSNNVDNTFGGGTEVVVK	1.8

query: // IC50 lookup, key: 2B11 (antibody, V domains shown) VH: QSVKESEGGLFKPTDTLTLTCTVSGFSLINYGVSWVRQAPGKGLEWIGYIGSAGSTYYATWAKSRATITRNTNLNTVTLKMTSLTAADTATYFCARAAYSAGSADAEDIWGPGTLVTVSS VL: AYYMTQTPASVEAAVGGTVTIKCQASQSISNYVAWYQQKPGQPPKLLIYRASTLASGVSSRFSGSGSGTEFTLTISDLECADAATYYCHQGYSSSNVDNIFGGGTEVVVK
result: 1.72

query: Request the reported IC50 associated with 8B7 (antibody, V domains shown) VH: QSVKESEGGLFKPTDNLTLTCTVSGFSLSNYGVTWVRQAPGNGLEYIGFIGSSGSAYYASWAKSRSTITRNTNLNTVTLKMTSLTAADTATYFCARDDVGGGKSLDIWGPGTLVTVSS VL: NIVMTQTPASVEVAVGGTVTIKCQASQSIGSYLSWYQQKPGQPPKLLIYDASNLASGVPSRFKGSGSGTQFTLSISDLECADAATYYCHQDYTSNNVDNTFGGGTEVVIK
result: 1.29
